Test system: CD4+ T cells
test_name: Exogenous autologous healthy donor restimulation assay, TNFα and IFNγ production by CD4+ T cells
Assay type: cell-based, human
Parameters: unit not given here
setup_conditions: maximum CD4+ T-cell response, donor independent; peptide pool 10 μg/mL, healthy donors
observable: Frequency (TNFα+ IFNγ+ CD4 T cells)
Just the number, please, no unit attached.

Lab note: measured Frequency (TNFα+ IFNγ+ CD4 T cells) of GWKICREGIGPVMLTMTSGEWSFSFLEAICGVSREPVPRRRHCIWDTRGGVGLCEASCWRPTSEVG (alternative splicing, STARD5) GWKICREGIGPVMLTMTSGEWSFSFLEAICGVSREPVPRRRHCIWDTRGGVGLCEASCWRPTSEVG was 0.081

Lab note: measured Frequency (TNFα+ IFNγ+ CD4 T cells) of MSATTGSQDNPEGKRDPSRKFQEQKALPKRPPLQKNLRNGVGQHYPATLTSRTRNSIKMRHSRTTRARRPPPSPVLPWAASNSQARPETSSLSEKSPEV (alternative splicing, CSAG1) MSATTGSQDNPEGKRDPSRKFQEQKALPKRPPLQKNLRNGVGQHYPATLTSRTRNSIKMRHSRTTRARRPPPSPVLPWAASNSQARPETSSLSEKSPEV was 0.12

Where these numbers come from: patent US20210261636A1
